# System: stress ulcer formation in rats
# Measurement Notes: WIS: Restraint and Water Immersion Stress-Induced Ulcer Inhibition Test
# Assay type: in vivo, rat (male Crj:SD or Slc:SD)
# Assay Conditions: 100 mg/kg oral, 10 minutes before 7 h restraint and water immersion (21° C.)
Quantity Kind: WIS: ulcer formation inhibitory rate (%)
# value in %; strip the unit string

Request: Kindly indicate its recorded WIS: ulcer formation inhibitory rate. Item: CCN(CC)CCNC(=O)c1cc(OCC=C(C)C)cc(OCC=C(C)C)c1 [Example 14]
Response: 86

Request: Kindly indicate its recorded WIS: ulcer formation inhibitory rate. Item: CC(C)N(CCNC(=O)c1ccc(C(=O)NC(C)(C)C)cc1)C(C)C [Example 67]
Response: 77

Request: Kindly indicate its recorded WIS: ulcer formation inhibitory rate. Item: CC(C)=CCOc1cccnc1C(=O)NCCN(C)C [Example 53]
Response: 67

Request: Kindly indicate its recorded WIS: ulcer formation inhibitory rate. Item: CC(C)=CCC/C(C)=C/COc1ccc(C(=O)NCCN(CC(C)C)CC(C)C)cc1 [Example 9]
Response: 40

Request: Kindly indicate its recorded WIS: ulcer formation inhibitory rate. Item: CCN(CC)CCNC(=O)c1cc(OC)c(OC)c(OCC=C(C)C)c1 [Example 40]
Response: 79

Request: Kindly indicate its recorded WIS: ulcer formation inhibitory rate. Item: CCN(CC)CCNC(=O)c1ccc(OC/C=C(\C)CCC=C(C)C)c(OC)c1 [Example 30]
Response: 84

Request: Kindly indicate its recorded WIS: ulcer formation inhibitory rate. Item: CC(C)=CCOc1ccc(C(=O)NCCN(C(C)C)C(C)C)cn1 [Example 48]
Response: 75

###

# Test system: stress ulcer formation in rats
# Measurement Notes: WIS: Restraint and Water Immersion Stress-Induced Ulcer Inhibition Test
# Assay type: in vivo, rat (male Crj:SD or Slc:SD)
# Assay Conditions: 100 mg/kg oral, 10 minutes before 7 h restraint and water immersion (21° C.)
# if value of WIS: ulcer formation inhibitory rate reaches 80%, tag T; if it stays below, tag F

Request: Hello, I need to know if CCN(CC)CCNC(=O)c1ccc(OC)cc1OC/C=C(\C)CCC=C(C)C has measured WIS: ulcer formation inhibitory rate not below 80%. Thanks!
Response: F

Request: Hello, I need to know if CC(C)=CCC/C(C)=C/COc1ccc(C(=O)NCCN(C)C)cn1 has measured WIS: ulcer formation inhibitory rate not below 80%. Thanks!
Response: F

Request: Hello, I need to know if CC(C)N(CCNC(=O)c1ccc(NC(=O)C(C)(C)C)cc1)C(C)C has measured WIS: ulcer formation inhibitory rate not below 80%. Thanks!
Response: T

Request: Hello, I need to know if CC(C)N(CCNC(=O)c1ccc(N(C)C)cc1)C(C)C has measured WIS: ulcer formation inhibitory rate not below 80%. Thanks!
Response: F

###

What AT: single dose toxicity level was measured for each of the following?
# System: mice
# Set-up: species or system mouse (male Slc:ICR)
# Assay Conditions: mouse, in vivo
Please reply with the number alone, leaving off any unit.

Request: Kindly indicate its recorded AT: single dose toxicity level. Item: CCN(CC)CCNC(=O)c1cc(OC/C=C(\C)CCC=C(C)C)ccc1OC/C=C(\C)CCC=C(C)C
Response: 5

Request: Kindly indicate its recorded AT: single dose toxicity level. Item: CCN(CC)CCNC(=O)c1cc(OCC=C(C)C)cc(OCC=C(C)C)c1
Response: 5

Request: Kindly indicate its recorded AT: single dose toxicity level. Item: CC(C)=CCC/C(C)=C/COc1ccc(OC/C=C(\C)CCC=C(C)C)c(C(=O)NCCN(C(C)C)C(C)C)c1
Response: 5

Request: Kindly indicate its recorded AT: single dose toxicity level. Item: CCN(CC)CCNC(=O)c1ccc(OC/C=C(\C)CCC=C(C)C)c(OC)c1
Response: 5

Request: Kindly indicate its recorded AT: single dose toxicity level. Item: CC(C)=CCOc1ccc(C(=O)NCCN(C(C)C)C(C)C)cn1
Response: 3

###

# Test system: stress ulcer formation in rats
# Measurement Notes: WIS: Restraint and Water Immersion Stress-Induced Ulcer Inhibition Test
# Format: in vivo, rat (male Crj:SD or Slc:SD)
# Assay Conditions: 100 mg/kg oral, 10 minutes before 7 h restraint and water immersion (21° C.)
Quantity Kind: WIS: ulcer formation inhibitory rate (%)
# value in %; strip the unit string

Request: Kindly indicate its recorded WIS: ulcer formation inhibitory rate. Item: CCN(CC)CCNC(=O)c1cc(OC)c(OC/C=C(\C)CCC=C(C)C)c(OC)c1 [Example 37]
Response: 69

Request: Kindly indicate its recorded WIS: ulcer formation inhibitory rate. Item: CCN(CC)CCNC(=O)c1ccc(CC(C)C)c(O)c1 [Example 56]
Response: 69

Request: Kindly indicate its recorded WIS: ulcer formation inhibitory rate. Item: CC(C)=CCOc1cc(C(=O)NCCN(C)C)cc(OCC=C(C)C)c1OCC=C(C)C [Example 24]
Response: 70

###

What WIS: ulcer formation inhibitory rate was measured for each of the following?
# System: stress ulcer formation in rats
# Measurement Notes: WIS: Restraint and Water Immersion Stress-Induced Ulcer Inhibition Test
# Format: in vivo, rat (male Crj:SD or Slc:SD)
# Assay Conditions: 100 mg/kg oral, 10 minutes before 7 h restraint and water immersion (21° C.)
# value in %; strip the unit string

Request: Kindly indicate its recorded WIS: ulcer formation inhibitory rate. Item: CCN(CC)CCNC(=O)c1ccc(OCC=C(C)C)c(OCC=C(C)C)c1 [Example 22]
Response: 81

Request: Kindly indicate its recorded WIS: ulcer formation inhibitory rate. Item: CC(C)c1ccc(C(=O)NCCN(C(C)C)C(C)C)cc1 [Example 64]
Response: 82

Request: Kindly indicate its recorded WIS: ulcer formation inhibitory rate. Item: COc1cc(C(=O)NCCN(C)C)cc(OC/C=C(\C)CCC=C(C)C)c1OC [Example 42]
Response: 81

Request: Kindly indicate its recorded WIS: ulcer formation inhibitory rate. Item: CCN(CC)CCNC(=O)c1cccnc1OCC=C(C)C [Example 47]
Response: 80

Request: Kindly indicate its recorded WIS: ulcer formation inhibitory rate. Item: CC(C)N(CCNC(=O)c1ccc(NC(C)(C)C)cc1)C(C)C [Example 68]
Response: 79

###

# Test system: stress ulcer formation in rats
# Measurement Notes: WIS: Restraint and Water Immersion Stress-Induced Ulcer Inhibition Test
# Type: in vivo, rat (male Crj:SD or Slc:SD)
# Assay Conditions: 100 mg/kg oral, 10 minutes before 7 h restraint and water immersion (21° C.)
What WIS: ulcer formation inhibitory rate was measured for each of the following?
# value in %; strip the unit string

Request: Kindly indicate its recorded WIS: ulcer formation inhibitory rate. Item: CCN(CC)CCNC(=O)c1ccc(OC)c(OC/C=C(\C)CCC=C(C)C)c1 [Example 29]
Response: 81

Request: Kindly indicate its recorded WIS: ulcer formation inhibitory rate. Item: CCN(CC)CCNC(=O)c1cc(OCC=C(C)C)c(OCC=C(C)C)c(OCC=C(C)C)c1 [Example 23]
Response: 81

Request: Kindly indicate its recorded WIS: ulcer formation inhibitory rate. Item: CCN(CC)CCNC(=O)c1ncccc1OCC=C(C)C [Example 54]
Response: 78

Request: Kindly indicate its recorded WIS: ulcer formation inhibitory rate. Item: CCN(CC)CCNC(=O)c1cc(OC/C=C(\C)CCC=C(C)C)ccc1OC/C=C(\C)CCC=C(C)C [Example 16]
Response: 82

Request: Kindly indicate its recorded WIS: ulcer formation inhibitory rate. Item: CCN(CC)CCNC(=O)c1ccccc1OC/C=C(\C)CCC=C(C)C [Example 2]
Response: 82
